Test system: Spodoptera littoralis (Egyptian cotton leaf worm)
test: Example B1: activity against Spodoptera littoralis, cotton leaf disc spray
Type: in vivo
run.conditions: foliar, 72 h, application rate of 200 ppm, cotton leaf discs, L1 larvae, 3 days after infestation, read-out: control in at least one of the three categories (mortality, anti-feedancy or growth inhibition)
property: percent control (mortality, anti-feedancy or growth inhibition) at 200 ppm

In the examples that follow, each entry is paired with its recorded percent control (mortality, anti-feedancy or growth inhibition) at 200 ppm.
- compound: "CCS(=O)(=O)c1cc(C2(C#N)CCC2)cnc1-c1nc2cc(C(F)(F)F)cnc2n1C [Compound P10]"
  result: "≥ 80%"
- compound: "CCS(=O)(=O)c1cc(C2CCCC2)cnc1-c1nc2cc(C(F)(F)F)cnc2n1C [Compound P5]"
  result: "≥ 80%"
- compound: "CCSc1cc(C2CC2)cnc1-c1nc2cc(C(F)(F)F)cnc2n1C [Compound P1]"
  result: "≥ 80%"

Prompt: Would you kindly share the measured percent control (mortality, anti-feedancy or growth inhibition) at 200 ppm for CCS(=O)(=O)c1cc(C2(C#N)CC2)cnc1-c1nc2cc(C(F)(F)F)cnc2n1C [Compound P9] ?
Completion: ≥ 80%

Prompt: Would you kindly share the measured percent control (mortality, anti-feedancy or growth inhibition) at 200 ppm for CCS(=O)(=O)c1cc(C2(C(=O)O)CC2)cnc1-c1nc2cc(C(F)(F)F)cnc2n1C [Compound P12] ?
Completion: ≥ 80%

Prompt: Would you kindly share the measured percent control (mortality, anti-feedancy or growth inhibition) at 200 ppm for CCS(=O)(=O)c1cc(C2CCC2)cnc1-c1nc2cc(C(F)(F)F)cnc2n1C [Compound P8] ?
Completion: ≥ 80%

Prompt: Would you kindly share the measured percent control (mortality, anti-feedancy or growth inhibition) at 200 ppm for CCS(=O)(=O)c1cc(C2(C#N)CC2)cnc1-c1nc2cc(SC(F)(F)F)cnc2n1C [Compound P13] ?
Completion: ≥ 80%

Prompt: Would you kindly share the measured percent control (mortality, anti-feedancy or growth inhibition) at 200 ppm for CCS(=O)(=O)c1cc(C2CC2)cnc1-c1nc2cc(C(F)(F)F)cnc2n1C [Compound P4] ?
Completion: ≥ 80%
